Test system: HCT-116 colon
run description: NCI tumour cell line growth inhibition, 48 h
Below, each of the molecules is paired with its reported TGI value.

Below are worked cases with known answers.
{"molecule": "CN=S(=O)(c1ccccc1)c1ccccc1", "observed": "> 100 µM"}
{"molecule": "CC1OC2CC(=O)OC2C2=C1C(=O)c1c(O)c3c(c(O)c1C2=O)C1CC(O)C3(O)C(C)O1 (configuration not stated)", "observed": "0.252 µM"}
{"molecule": "COc1cc[n+](C)cc1", "observed": "> 100 µM"}
{"molecule": "CCOc1cc(NC(C)=O)ccc1C(=O)NN1C(=O)/C(=C/c2cc(OC)c(OC)c(OC)c2)N=C1c1ccccc1", "observed": "> 100 µM"}

INPUT: Quick check: TGI of O[C@@H]1C[C@@H]2N[C@@](O)(C[C@@H]2O)[C@H]1O ?
OUTPUT: > 100 µM

INPUT: Quick check: TGI of C=C1C(=O)OC2C1CC(O)/C(C)=C\CCC1(C)OC21 (configuration not stated) ?
OUTPUT: > 100 µM

INPUT: Quick check: TGI of OCCCCCCOc1ccc(-c2cc(-c3ccccn3)nc(-c3ccccn3)c2)cc1 ?
OUTPUT: 1.48 µM

INPUT: Quick check: TGI of Cc1cccc(NC(=S)N=Nc2c(O)[nH]c3ccccc23)c1 ?
OUTPUT: > 100 µM

INPUT: Quick check: TGI of CCOC(=O)CCC(NC(=O)c1ccc(N2CCN(c3c(C)nc(N)nc3N)CC2)cc1)C(=O)OCC (configuration not stated) ?
OUTPUT: > 100 µM

INPUT: Quick check: TGI of COc1ccc(CC(C)N)cc1 (configuration not stated) ?
OUTPUT: > 100 µM

INPUT: Quick check: TGI of COC(=O)c1cc(C#Cc2cc(OC)ccc2OC)ccc1OC ?
OUTPUT: > 100 µM

INPUT: Quick check: TGI of CC[C@H](CC#N)OC(=O)N[C@@H](C)c1cccc(NC(=O)Nc2ccc(-c3cnco3)c(OC)c2)c1 ?
OUTPUT: > 45.8 µM

* * *

Tested on: K-562 leukemia
run description: NCI tumour cell line growth inhibition, 48 h
value kind: TGI

Below are worked cases with known answers.
{"molecule": "CC1=C(O)C(=O)C2C(=O)C1C(C)C2c1ccc(Cl)cc1 (centres undefined)", "value kind": "TGI", "observed": "> 100 µM"}
{"molecule": "COC(=O)C1C2C=CC(C2)N1[C@@H](C)c1ccccc1 (some centres undefined)", "value kind": "TGI", "observed": "> 100 µM"}
{"molecule": "N#CC(C(=O)C(=O)NCCCNC(=O)C(=O)C(C#N)c1ccccc1)c1ccccc1 (centres undefined)", "value kind": "TGI", "observed": "> 100 µM"}
{"molecule": "CN(C)c1ccc(N=Nc2ccccn2)cc1", "value kind": "TGI", "observed": "> 100 µM"}
{"molecule": "CCC(C)C(=O)c1c(O)c(C/C=C(\\C)CCC=C(C)C)c(O)c2c(C(O)CC)cc(=O)oc12 (centres undefined)", "value kind": "TGI", "observed": "3.31 µM"}
{"molecule": "CN(C)CCCN1CCc2c([nH]c3ccccc23)C1c1cccnc1 (centres undefined)", "value kind": "TGI", "observed": "> 100 µM"}
{"molecule": "COc1ccc(C(C#N)NNc2nc(C)cc(=O)[nH]2)cc1OC (centres undefined)", "value kind": "TGI", "observed": "> 100 µM"}
{"molecule": "CN(CCc1ccc(N)cc1)[C@H]1CCCC[C@H]1N1CCCC1", "value kind": "TGI", "observed": "> 100 µM"}

Then there is this molecule:
INPUT: Notebook: pull reported TGI for K-562 leukemia, entry CSc1ccc(/C=C2\N=C(c3ccccc3)N(c3nc4ccc(Sc5ccccc5)cc4[nH]3)C2=O)cc1
OUTPUT: 66.4 µM

* * *

Tested on: SF-268 CNS
run description: NCI tumour cell line growth inhibition, 48 h
value kind: TGI

Below are worked cases with known answers.
{"compound": "Cc1ccc(N=C2C(=O)C3=C(OC(C)(C)CC3)c3ccccc32)cc1", "TGI": "6.37 µM"}
{"compound": "COc1ccc(NC(=O)/C(CC2=Nc3ccc([N+](=O)[O-])cc3NC2O)=N\\NC(=O)C[N+](C)(C)C)c(OC)c1 (configuration not stated)", "TGI": "> 100 µM"}
{"compound": "C[C@@H]1CN(CC(=O)N2CC(C)(C)c3nc(CO)c(Cc4ccc(F)cc4)cc32)[C@@H](CN2CCOC[C@H]2C)CN1", "TGI": "> 100 µM"}
{"compound": "C[Si](C)(OCCS(=O)(=O)O)C1S(=O)(=O)OCCOS1(=O)=O", "TGI": "> 100 µM"}

INPUT: Quick check: TGI of Cc1nc2ccccc2c(=O)[nH]1 ?
OUTPUT: > 100 µM

INPUT: Quick check: TGI of CN=S(=O)(c1ccccc1)c1ccccc1 ?
OUTPUT: > 100 µM

INPUT: Quick check: TGI of O=C(CSCC(=O)N/N=C\c1ccc(-c2ccccc2)cc1)N/N=C\c1ccc(-c2ccccc2)cc1 ?
OUTPUT: 53.9 µM

* * *

System: RPMI-8226 leukemia
run description: NCI tumour cell line growth inhibition, 48 h; in the data active = GI50 below about 0.43 µM; inactive = the rest
Write down the outcome that applies. Available outcomes: Yes = active, No = inactive

{"molecule": "COc1ccc2c(c1)OC(N(C(C)=O)C(C)=O)=C(C#N)C2c1ccc(F)cc1 (stereo not given)", "class label": "No"}
{"molecule": "CN(C)c1ccc2cc(-c3ccccc3F)c(N)nc2c1", "class label": "No"}
{"molecule": "Clc1nc(Cl)c2ncn(Cc3ccc(COc4cccc(OCc5ccc(Cn6cnc7c(Cl)nc(Cl)nc76)cc5)c4)cc3)c2n1", "class label": "No"}

INPUT: Look up the recorded call for CCOP(=O)(OCC)C(NC(c1ccccc1)c1ccccc1)c1cccc2ccccc12 (stereo not given) in this test.
OUTPUT: No

INPUT: Look up the recorded call for CC(=O)Nc1ccc2c(c1)oc(=O)c1cc(NC(C)=O)ccc12 in this test.
OUTPUT: No

INPUT: Look up the recorded call for Fc1cccc(COc2ccc(Nc3ncnc4cc(-c5ccc[nH]5)sc34)cc2Cl)c1 in this test.
OUTPUT: Yes

INPUT: Look up the recorded call for CN(CCOc1ccc(C#N)cc1)CCOc1ccc(C#N)cc1 in this test.
OUTPUT: No

INPUT: Look up the recorded call for CCCCN(Cc1ccc(F)cc1)c1ccc(CO)c(Cl)c1 in this test.
OUTPUT: No

INPUT: Look up the recorded call for Cc1nc2sc(C(=O)Nc3ccccc3)c(N)c2cc1C(=O)/C=C/c1ccccc1 in this test.
OUTPUT: No

INPUT: Look up the recorded call for CC1OC2CC(=O)OC2C2=C1C(=O)c1c(O)c3c(c(O)c1C2=O)C1CC(O)C3(O)C(C)O1 (stereo not given) in this test.
OUTPUT: Yes

* * *

Below, each of the compounds is paired with its reported TGI value.
Test system: SK-MEL-2 melanoma
run description: NCI tumour cell line growth inhibition, 48 h

{"compound": "CC1C[C@]2(C)C(=O)N(c3ccccc3)C(=N)[C@@H]2N(C)c2ccccc21 (stereo not given in full)", "TGI": "> 100 µM"}
{"compound": "O=C(CSCC(=O)N/N=C\\c1ccc(-c2ccccc2)cc1)N/N=C\\c1ccc(-c2ccccc2)cc1", "TGI": "83.4 µM"}
{"compound": "CO/N=C(\\C)c1ccc(Nc2cc(-c3ccccc3)nc3c(O)cccc23)cc1", "TGI": "> 100 µM"}
{"compound": "OCCCCCCOc1ccc(-c2cc(-c3ccccn3)nc(-c3ccccn3)c2)cc1", "TGI": "1.13 µM"}

Then there is this compound:
INPUT: Quick check: TGI of CCOP(=O)(OCC)C(NC(c1ccccc1)c1ccccc1)c1cccc2ccccc12 (stereo not given) ?
OUTPUT: > 100 µM

* * *

Tested on: HS 578T breast
run description: NCI tumour cell line growth inhibition, 48 h; in the data active = GI50 below about 0.43 µM; inactive = the rest
Write down the outcome that applies. Available outcomes: active, inactive

{"molecule": "CC1C(=O)C(C)C(c2ccccc2)N(N=O)C1c1ccccc1 (stereo unspecified)", "class label": "inactive"}
{"molecule": "CCN(Cc1ccccc1OC)c1ccc(CO)c(Cl)c1", "class label": "inactive"}
{"molecule": "COc1ccc2c(c1)OC(N(C(C)=O)C(C)=O)=C(C#N)C2c1ccc(F)cc1 (stereo unspecified)", "class label": "inactive"}
{"molecule": "Clc1nc(Cl)c2ncn(Cc3ccc(COc4cccc(OCc5ccc(Cn6cnc7c(Cl)nc(Cl)nc76)cc5)c4)cc3)c2n1", "class label": "inactive"}
{"molecule": "CC(=O)[O-].CC(=O)[O-].[NH2-].[Pt+2].c1ccc2cnccc2c1", "class label": "inactive"}

INPUT: Look up the recorded call for C[C@@H]1CN(CC(=O)N2CC(C)(C)c3nc(CO)c(Cc4ccc(F)cc4)cc32)[C@@H](CN2CCOC[C@H]2C)CN1 in this test.
OUTPUT: inactive

INPUT: Look up the recorded call for Cc1cc(C(C#N)c2ccc(Cl)cc2)c(Cl)cc1NC(=O)c1cc(I)cc(I)c1O (stereo unspecified) in this test.
OUTPUT: inactive

INPUT: Look up the recorded call for CC(=O)OCC1OC(n2ccc(=O)[nH]c2=O)C(OC(C)=O)C1OC(C)=O (stereo unspecified) in this test.
OUTPUT: inactive

INPUT: Look up the recorded call for C[C@H]1[C@H](C)CC[C@]2(C(=O)O)CC[C@]3(C)C(=CC[C@@H]4[C@@]5(C)C/C(=C/c6cccnc6)[C@H](O)C(C)(C)[C@@H]5CC[C@]43C)[C@H]12 in this test.
OUTPUT: inactive

INPUT: Look up the recorded call for COc1cc(-c2cn(-c3ccc(Cl)cc3)c(C)c2C(=O)C(F)(F)F)cc(OC)c1OC in this test.
OUTPUT: inactive
